Can you tell me Ki for the items I'm about to list?
# SYSTEM TESTED: MOR (Mus musculus)
# Sequence (P42866 whole entry): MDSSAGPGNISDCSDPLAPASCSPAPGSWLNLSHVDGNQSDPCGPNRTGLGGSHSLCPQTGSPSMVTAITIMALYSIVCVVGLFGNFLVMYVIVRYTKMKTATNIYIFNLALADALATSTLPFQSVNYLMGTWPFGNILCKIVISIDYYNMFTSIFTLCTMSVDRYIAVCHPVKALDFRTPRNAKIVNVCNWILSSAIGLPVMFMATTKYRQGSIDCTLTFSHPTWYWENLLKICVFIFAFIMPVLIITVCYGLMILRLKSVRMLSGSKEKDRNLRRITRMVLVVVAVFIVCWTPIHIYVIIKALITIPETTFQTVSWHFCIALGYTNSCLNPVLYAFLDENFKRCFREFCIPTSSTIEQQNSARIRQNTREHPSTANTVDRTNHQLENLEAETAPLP
# ASSAY METHOD TEXT: Competition radioligand binding, MOR ([3H]naloxone)
# Parameters: expressed in transfected cells; host or cells: CHO
# MEASUREMENT CONTEXT: CHO cell membranes
Numbers only, in nM.

List reported Ki for each of these compounds:
1. O=C(N[C@@H]1CC[C@@]2(O)[C@H]3Cc4ccc(O)c5c4[C@@]2(CCN3CC2CC2)[C@H]1O5)c1ccncc1C1CCCCC1 [Compound 10]
2. O=C(N[C@@H]1CC[C@@]2(O)[C@H]3Cc4ccc(O)c5c4[C@@]2(CCN3CC2CC2)[C@H]1O5)c1ccncc1F [Compound 1]
3. O=C(Cc1ccncc1C(F)(F)F)N[C@@H]1CC[C@@]2(O)[C@H]3Cc4ccc(O)c5c4[C@@]2(CCN3CC2CC2)[C@H]1O5 [Compound 4]

1. 0.78
2. 0.36
3. 0.43
